Entry source: patent US20100286128A1

target: α7-subtype of nicotinic receptors (Rattus norvegicus, UniProt Q05941)
Sequence (Q05941 23-502): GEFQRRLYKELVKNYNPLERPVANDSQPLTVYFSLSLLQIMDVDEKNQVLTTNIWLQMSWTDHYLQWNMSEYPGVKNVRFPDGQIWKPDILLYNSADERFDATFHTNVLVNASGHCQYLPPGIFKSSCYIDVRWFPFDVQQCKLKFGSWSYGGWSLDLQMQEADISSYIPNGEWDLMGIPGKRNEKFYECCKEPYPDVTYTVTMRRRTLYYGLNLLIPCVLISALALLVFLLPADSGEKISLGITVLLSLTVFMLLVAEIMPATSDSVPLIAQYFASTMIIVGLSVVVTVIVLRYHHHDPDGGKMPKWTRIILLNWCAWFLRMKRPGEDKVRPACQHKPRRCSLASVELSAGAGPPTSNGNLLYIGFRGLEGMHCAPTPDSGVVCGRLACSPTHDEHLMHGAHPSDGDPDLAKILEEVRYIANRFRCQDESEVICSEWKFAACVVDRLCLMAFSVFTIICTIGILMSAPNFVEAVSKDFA
parameter.measured: IC50

Record `c1csc(-c2cnc(N3CCN4CCC3CC4)nc2)c1` . Reported IC50: < 100 nM
